tgt: coagulation factor IX / activated coagulation factor IX (human), P00740
Sequence (P00740 47-461): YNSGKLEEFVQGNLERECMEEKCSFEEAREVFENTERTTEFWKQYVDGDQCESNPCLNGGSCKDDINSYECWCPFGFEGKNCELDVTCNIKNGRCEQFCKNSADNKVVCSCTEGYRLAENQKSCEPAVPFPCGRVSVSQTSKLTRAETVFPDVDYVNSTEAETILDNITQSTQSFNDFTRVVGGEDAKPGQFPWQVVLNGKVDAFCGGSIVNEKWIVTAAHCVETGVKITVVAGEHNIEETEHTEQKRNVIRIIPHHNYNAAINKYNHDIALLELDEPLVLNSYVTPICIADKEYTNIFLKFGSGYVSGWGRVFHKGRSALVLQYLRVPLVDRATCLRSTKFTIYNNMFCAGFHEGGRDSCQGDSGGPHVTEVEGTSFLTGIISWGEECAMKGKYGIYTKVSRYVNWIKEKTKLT
test-method-notes: cell-based or functional assay
experimental-readout: reduction of coagulation time against no antibody

| binder | value |
| --- | --- |
| commonly shared L chain antibody of A44 H chain, B26 H chain and hybrid L chain BBA(G) (bispecific antibody, V domains shown) VH 1: MQVQLQQSGAELAKPGASVKLSCKASGYTFTSSWMHWIKQRPGQGLEWLGYINPSSGYTKYNRKFRDKATLTADKSSSTAYMQLTSLTYEDSAVYYCARGGNGYYFDYWGQGTTLTVSS VH 2: MQVQLQQSGPELVKPGASVKISCKASGYTFTDNNMDWVKQSHGKGLEWIGDINTKSGGSIYNQKFKGKATLTIDKSSSTAYMELRSLTSEDTAVYYCARRRSYGYYFDYWGQGTTLTVSS VL: DIVMTQSHKFMSTSVGDRVSITCKASQNVGTAVAWYQQKPGQSPKLLIYSASYRYSGVPDRFTGSRYGTDFTLTISNVQSEDLADYLCQQYSNYITFGGGTKLELKRG | > 70 s |
| chimeric bispecific antibody (A69/B26/BBA) (bispecific antibody, V domains shown) VH 1: MEVQLQQSGAELVKPGASVKLSCTASGFNIKDYYMHWIKQRPGQGLEWLGYINPSSGYTKYNRKFRDKATLTADKSSSTAYMQLTSLTYEDSAVYYCARGGNGYYLDYWGQGTTLTVSS VH 2: MQVQLQQSGPELVKPGASVKISCKASGYTFTDNNMDWVKQSHGKGLEWIGDINTKSGGSIYNQKFKGKATLTIDKSSSTAYMELRSLTSEDTAVYYCARRRSYGYYFDYWGQGTTLTVSS VL: DIVMTQSHKFMSTSVGDRVSITCKASQNVGTAVAWYQQKPGQSPKLLIYSASYRYSGVPDRFTGSRYGTDFTLTISNVQSEDLADYLCQQYSNYITFGGGTKLELKR | > 80 s |

Next, consider the following binder.
Ask: Look up and state reported reduction of coagulation time against no antibody for commonly shared L chain antibody of A44 H chain, B26 H chain and hybrid L chain ABA(G) (bispecific antibody, V domains shown) VH 1: MQVQLQQSGAELAKPGASVKLSCKASGYTFTSSWMHWIKQRPGQGLEWLGYINPSSGYTKYNRKFRDKATLTADKSSSTAYMQLTSLTYEDSAVYYCARGGNGYYFDYWGQGTTLTVSS VH 2: MQVQLQQSGPELVKPGASVKISCKASGYTFTDNNMDWVKQSHGKGLEWIGDINTKSGGSIYNQKFKGKATLTIDKSSSTAYMELRSLTSEDTAVYYCARRRSYGYYFDYWGQGTTLTVSS VL: DIVMTQSHKFMSTSVGDRVSITCKASQDVGTAVAWYQQKPGQSPKLLIYSASYRYSGVPDRFTGSRYGTDFTLTISNVQSEDLADYLCQQYSNYITFGGGTKLELKRG
Reply: > 60 s
